# Test system: HL-60
# PROTOCOL SUMMARY: Cytotoxicity against human HL60 cells assessed as decrease in cell survival after 72 hrs by MTT assay
# Format: functional, cell-based
# EXPERIMENTAL PARAMETERS: HL-60, 72 h
Threshold check on IC50: strictly below 9 µM is condition met; on or above 9 µM is condition not met.

Please determine if `COc1ccccc1C(=O)C=Cc1ccc(C(=O)Nc2nnc(-c3ccc(O)c(O)c3)s2)cc1` is below 9 µM in terms of IC50. condition not met

is_below(IC50, 9 µM) for `Cc1ccc(C(=O)/C=C/c2ccc(C(=O)Nc3nnc(-c4ccc(O)c(O)c4)s3)cc2)cc1` ? condition met

Confirm or reject: IC50 of `Cc1cccc(C(=O)/C=C/c2ccc(C(=O)Nc3nnc(-c4ccc(O)c(O)c4)s3)cc2)c1` lies strictly below 9 µM condition met

Confirm or reject: IC50 of `O=C(/C=C/c1ccc(C(=O)Nc2nnc(-c3ccc(O)c(O)c3)s2)cc1)c1ccc(F)cc1` lies strictly below 9 µM condition not met

Please check: IC50 for `O=C(/C=C/c1ccc(C(=O)Nc2nnc(-c3ccc(O)c(O)c3)s2)cc1)c1ccc([N+](=O)[O-])cc1` , strictly under 9 µM or not? condition not met

hey, is IC50 for `COc1cccc(C(=O)/C=C/c2ccc(C(=O)Nc3nnc(-c4ccc(O)c(O)c4)s3)cc2)c1` lower than 9 µM or not? condition not met

Record `O=C(/C=C/c1ccc(C(=O)Nc2nnc(-c3ccc(O)c(O)c3)s2)cc1)c1ccc(Br)cc1` : is its IC50 strictly below 9 µM? condition not met

Please determine if `O=C(/C=C/c1ccc(C(=O)Nc2nnc(-c3ccc(O)c(O)c3)s2)cc1)c1ccccc1` is below 9 µM in terms of IC50. condition met
